- SUBJECT_OF_TEST: T1, QHB-DB (QHB/OsWOX5 DNA-binding domain) (Oryza sativa (rice), UniProt Q8W0F1 1-82)
- T1 sequence: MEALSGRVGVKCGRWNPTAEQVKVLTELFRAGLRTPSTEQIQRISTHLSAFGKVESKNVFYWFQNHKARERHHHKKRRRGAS
- EXPERIMENT: EMSA
OBSERVED_PROPERTY: binding result

M3 (Core 3 mutated) (dsDNA) DNA 1: TTTTATAATTAATCACTCCTTGCTGCTTAATCACCCAACCGGTCACACCTGATCTACCCA DNA 2: TGGGTAGATCAGGTGTGACCGGTTGGGTGATTAAGCAGCAAGGAGTGATTAATTATAAAA	no binding
P2 (dsDNA) DNA 1: TTTTATAATTAATCACTCCTTGCTGCTTAATCACCCAATTAATCACACCTGATCTACCCA DNA 2: TGGGTAGATCAGGTGTGATTAATTGGGTGATTAAGCAGCAAGGAGTGATTAATTATAAAA	binds
P1 (dsDNA) DNA 1: AAAGATAATAAAAATGTTTATTTCGATGCATTAATTAGTTGTTAGAGTCTTTTGTTGTGT DNA 2: ACACAACAAAAGACTCTAACAACTAATTAATGCATCGAAATAAACATTTTTATTATCTTT	no binding
Positive control (AGAMOUS intron) (dsDNA) DNA 1: ATGTCTATTGGATTTATACCCAATGTGTTAATGGGTTGTTGACACATGTCACATGTCTGA DNA 2: TCAGACATGTGACATGTGTCAACAACCCATTAACACATTGGGTATAAATCCAATAGACAT	binds
M1 (Core 1 mutated) (dsDNA) DNA 1: TTTTATGGCCGGTCACTCCTTGCTGCTTAATCACCCAATTAATCACACCTGATCTACCCA DNA 2: TGGGTAGATCAGGTGTGATTAATTGGGTGATTAAGCAGCAAGGAGTGACCGGCCATAAAA	no binding

Attention now turns to another entry.
Q: What does the data say about its binding result? Entry: P3 (dsDNA) DNA 1: GTAGATGGTACCCGCTGCAGTAAGCCTCCATTAAGCTTGAATTGCTGCTCCCTTGGGCGC DNA 2: GCGCCCAAGGGAGCAGCAATTCAAGCTTAATGGAGGCTTACTGCAGCGGGTACCATCTAC
Result: no binding
